Entries and their Papp at 18 hours, 50 µM values follow.
- PROTOCOL_DETAILS: PAMPA (parallel artificial membrane permeability assay)
- Type: in vitro ADME
- CONDITION_SUMMARY: PAMPA; membrane permeation rate (Pe); 50 mM MOPSO buffer pH 6.5 with 5.0% glycocholic acid, 37° C., 18 hours; read-out: iPAMPA Pe
Positions of bridges follow the written chain, without caps; N, C: chain ends. Non-standard residues stand in square brackets, D forms with d. Residues, ends and D or L forms follow the SMILES beside them. *: point of attachment. NMeF = CN[C@@H](Cc1ccccc1)C(=O)O; NMeL = CN[C@@H](CC(C)C)C(=O)O; NMeV = CN[C@H](C(=O)O)C(C)C; NMeA = CN[C@@H](C)C(=O)O; Piperidide = C1CCN(*)CC1; dNMeA = CN[C@H](C)C(=O)O

- COMPOUND: "CC(C)[C@@H]1NC(=O)[C@H](Cc2ccccc2)N(C)C(=O)[C@H](C)N(C)C(=O)[C@H]([C@@H](C)O)NC(=O)[C@H](C)N(C)C(=O)CNC(=O)[C@H](Cc2ccccc2)NC(=O)[C@@H](C)N(C)C(=O)C[C@@H](C(=O)N(C)[C@@H](Cc2ccccc2)C(=O)N(C)[C@@H](Cc2ccccc2)C(=O)N[C@@H](C)C(=O)N2CCCCC2)NC(=O)[C@H](C(C)C)N(C)C1=O [DP-504] ([dNMeA]FG[NMeA]T[NMeA][NMeF]V[NMeV]D[NMeF][NMeF]A-Piperidide; lactam N-10)"
  Papp at 18 hours, 50 µM: "31 ×10⁻⁶ cm/s"
- COMPOUND: "CC[C@H](C)[C@H](NC(=O)[C@H](C)N(C)C(=O)[C@@H]1CC(=O)N(C)[C@H](C)C(=O)N(C)[C@@H](C)C(=O)N(C)[C@@H](Cc2ccccc2)C(=O)N(C)[C@@H](CC(C)C)C(=O)N[C@@H]([C@@H](C)O)C(=O)N(C)[C@@H](C)C(=O)N(C)[C@@H](CC(C)C)C(=O)N[C@@H](CO)C(=O)N1)C(=O)N1CCC[C@H]1C(=O)N[C@H](C(=O)N[C@@H](C)C(=O)N1CCCCC1)C(C)C [DP-578] ([dNMeA][NMeA][NMeF][NMeL]T[NMeA][NMeL]SD[NMeA]IPVA-Piperidide; lactam N-9)"
  Papp at 18 hours, 50 µM: "3.4 ×10⁻⁶ cm/s"

----------
- PROTOCOL_DETAILS: Metabolic stability in human hepatic microsome
- Type: in vitro ADME
- CONDITION_SUMMARY: microsomes, pH 7.4; human hepatic microsome, NADPH(+); read-out: CL NADPH(+)
Starred links: 1 amine or outer side, 2 acyl side, 3 side chain; linkers in the order of their positions; H or OH if unused. Positions of bridges follow the written chain, without caps; N, C: chain ends. Non-standard residues stand in square brackets, D forms with d. Residues, ends and D or L forms follow the SMILES beside them. *: point of attachment. NMeF = CN[C@@H](Cc1ccccc1)C(=O)O; NMeGABA = CN(CCCC(=O)[*:2])[*:1]; NMeL = CN[C@@H](CC(C)C)C(=O)O; Phg = N[C@H](C(=O)O)c1ccccc1; NMeV = CN[C@H](C(=O)O)C(C)C; NMeA = CN[C@@H](C)C(=O)O; Piperidide = C1CCN(*)CC1; Sar = CNCC(=O)O; tBu = CC(C)(C)*
VALUE_TYPE: microsomal CLint at 1 uM (µL/min/mg)

- COMPOUND: "CC[C@H](C)[C@@H]1NC(=O)[C@H](C(C)C)N(C)C(=O)[C@H](Cc2ccccc2)N(C)C(=O)[C@H](Cc2ccccc2)NC(=O)[C@H](CC(C)C)N(C)C(=O)[C@H](C)N(C)C(=O)[C@H]([C@@H](C)O)NC(=O)[C@H](C)N(C)C(=O)C[C@@H](C(=O)N2CCCCC2)NC(=O)[C@H](CC(C)C)N(C)C1=O [DP-333] ([NMeA]T[NMeA][NMeL]F[NMeF][NMeV]I[NMeL]D-Piperidide; lactam N-10)"
  UNITS: "µL/min/mg"
  MEASURED_RESULT: 157
- COMPOUND: "CC(C)C[C@@H]1NC(=O)[C@H](CC(C)C)N(C)C(=O)[C@H](CC(C)C)N(C)C(=O)[C@H](CCC(N)=O)NC(=O)[C@H](Cc2ccccc2)N(C)C(=O)[C@H]([C@@H](C)O)NC(=O)[C@H](CC(C)C)N(C)C(=O)[C@H](Cc2ccccc2)NC(=O)[C@H](C)NC(=O)C[C@@H](C(=O)N(C)[C@@H](Cc2ccccc2)C(=O)N[C@@H](C)C(=O)N2CCCCC2)NC1=O [DP-602] (AF[NMeL]T[NMeF]Q[NMeL][NMeL]LD[NMeF]A-Piperidide; lactam N-10)"
  UNITS: "µL/min/mg"
  MEASURED_RESULT: 26
- COMPOUND: "CC(C)C[C@H]1C(=O)NCC(=O)N[C@H](C(=O)N2CCCCC2)CC(=O)N[C@@H](c2ccccc2)C(=O)N[C@@H]([C@@H](C)O)C(=O)N(C)[C@@H](C)C(=O)N(C)[C@@H](Cc2ccccc2)C(=O)N(C)[C@@H](Cc2ccccc2)C(=O)N[C@@H](COC(C)(C)C)C(=O)N1C [DP-563] ([Phg]T[NMeA][NMeF][NMeF]S(tBu)[NMeL]GD-Piperidide; lactam N-9)"
  UNITS: "µL/min/mg"
  MEASURED_RESULT: 111
- COMPOUND: "CC(C)C[C@H]1C(=O)N[C@H](C(=O)N(C)[C@@H](Cc2ccccc2)C(=O)N[C@@H](C)C(=O)N2CCCCC2)CC(=O)N(C)CCCC(=O)N[C@@H](C(C)C)C(=O)N(C)[C@@H](Cc2ccccc2)C(=O)N(C)[C@@H](CC(C)C)C(=O)N[C@@H]([C@@H](C)O)C(=O)N(C)[C@@H](C)C(=O)N(C)CC(=O)N1C [DP-385] ([NMeGABA]V[NMeF][NMeL]T[NMeA][Sar][NMeL]D[NMeF]A-Piperidide; lactam N-9)"
  UNITS: "µL/min/mg"
  MEASURED_RESULT: 102
- COMPOUND: "CC(C)C[C@H]1C(=O)N(C)[C@@H](C)C(=O)N(C)[C@@H](Cc2ccccc2)C(=O)N[C@@H](COC(C)(C)C)C(=O)N[C@H](C(=O)N2CCCCC2)CC(=O)N(C)CCCC(=O)N[C@@H]([C@@H](C)O)C(=O)N1C [DP-677] ([NMeGABA]T[NMeL][NMeA][NMeF]S(tBu)D-Piperidide; lactam N-7)"
  UNITS: "µL/min/mg"
  MEASURED_RESULT: 45

----------
- PROTOCOL_DETAILS: PAMPA (parallel artificial membrane permeability assay)
- Type: in vitro ADME
- CONDITION_SUMMARY: PAMPA; membrane permeation rate (Pe); 50 mM MOPSO buffer pH 6.5 with 5.0% glycocholic acid, 37° C., 18 hours; read-out: iPAMPA Pe
Starred links: 1 amine or outer side, 2 acyl side, 3 side chain; linkers in the order of their positions; H or OH if unused. Positions of bridges follow the written chain, without caps; N, C: chain ends. Non-standard residues stand in square brackets, D forms with d. Residues, ends and D or L forms follow the SMILES beside them. *: point of attachment. NMeF = CN[C@@H](Cc1ccccc1)C(=O)O; NMeI = CC[C@H](C)[C@H](NC)C(=O)O; NMeβAla = CN(CCC(=O)[*:2])[*:1]; NMeL = CN[C@@H](CC(C)C)C(=O)O; NMeV = CN[C@H](C(=O)O)C(C)C; NMeS = CN[C@@H](CO)C(=O)O; NMeA = CN[C@@H](C)C(=O)O; Piperidide = C1CCN(*)CC1; dNMeA = CN[C@H](C)C(=O)O; β3hA = C[C@H](N)CC(=O)O; Sar = CNCC(=O)O

- COMPOUND: "CC(C)C[C@@H]1NC(=O)[C@@H](C)NC(=O)C[C@@H](C(=O)N2CCCCC2)NC(=O)[C@H](CC(C)C)N(C)C(=O)[C@H](C)N(C)C(=O)[C@H](CC(C)C)N(C)C(=O)[C@H](CC(C)C)N(C)C(=O)[C@H](Cc2ccccc2)N(C)C(=O)[C@H](C)NC(=O)[C@H](Cc2ccccc2)N(C)C(=O)[C@H]([C@@H](C)O)NC1=O [DP-139] ([dA]LT[NMeF]A[NMeF][NMeL][NMeL][NMeA][NMeL]D-Piperidide; lactam N-11)"
  Papp at 18 hours, 50 µM [×10⁻⁶ cm/s]: 23
- COMPOUND: "CC(C)C[C@@H]1NC(=O)[C@H](CO)N(C)C(=O)[C@H](CC(C)C)N(C)C(=O)[C@H](CC(C)C)N(C)C(=O)[C@H](CC(C)C)N(C)C(=O)C[C@H](C)NC(=O)[C@H](C)NC(=O)[C@H](CC(C)C)N(C)C(=O)[C@H](CC(C)C)NC(=O)[C@H](CC(C)C)N(C)C(=O)CN(C)C1=O [DP-644] (cyclo(A[β3hA][NMeL][NMeL][NMeL][NMeS]L[Sar][NMeL]L[NMeL]))"
  Papp at 18 hours, 50 µM [×10⁻⁶ cm/s]: 33
- COMPOUND: "CC[C@H](C)[C@@H]1NC(=O)[C@H](C)N(C)C(=O)[C@H](C)N(C)C(=O)C[C@@H](C(=O)N2CCCCC2)NC(=O)[C@H](CC(C)C)N(C)C(=O)[C@H](Cc2ccccc2)N(C)C(=O)[C@H](C)N(C)C(=O)[C@H]([C@@H](C)O)NC(=O)[C@H](Cc2ccccc2)N(C)C(=O)[C@H](CC(C)C)N(C)C1=O [DP-258] ([NMeA][NMeA]I[NMeL][NMeF]T[NMeA][NMeF][NMeL]D-Piperidide; lactam N-10)"
  Papp at 18 hours, 50 µM [×10⁻⁶ cm/s]: 52
- COMPOUND: "CC(C)C[C@H]1C(=O)N[C@@H]([C@@H](C)O)C(=O)N(C)[C@@H](C)C(=O)N[C@@H](C(C)C)C(=O)N(C)[C@@H](C)C(=O)N(C)[C@@H](C)C(=O)N[C@H](C(=O)N(C)[C@@H](Cc2ccccc2)C(=O)N(C)[C@@H](Cc2ccccc2)C(=O)N[C@@H](C)C(=O)N2CCCCC2)CC(=O)N(C)[C@@H](C)C(=O)N(C)[C@@H](Cc2ccccc2)C(=O)N1C [DP-464] ([NMeA][NMeF][NMeL]T[NMeA]V[NMeA][NMeA]D[NMeF][NMeF]A-Piperidide; lactam N-9)"
  Papp at 18 hours, 50 µM [×10⁻⁶ cm/s]: 25
- COMPOUND: "CC[C@H](C)[C@@H]1NC(=O)[C@H](Cc2ccccc2)NC(=O)[C@H](C(C)C)N(C)C(=O)CN(C)C(=O)C[C@@H](C(=O)N2CCCCC2)NC(=O)[C@H]([C@@H](C)O)NC(=O)[C@H](CC(C)C)N(C)C(=O)[C@H](Cc2ccccc2)NC(=O)[C@H](CC(C)C)N(C)C(=O)CNC(=O)[C@H](CC(C)C)NC(=O)[C@H](C)N(C)C1=O [DP-137] ([Sar][NMeV]FI[NMeA]LG[NMeL]F[NMeL]TD-Piperidide; lactam N-12)"
  Papp at 18 hours, 50 µM [×10⁻⁶ cm/s]: 32
- COMPOUND: "CC(C)C[C@H]1C(=O)N(C)[C@@H](C)C(=O)N(C)[C@@H](Cc2ccccc2)C(=O)N[C@@H]([C@@H](C)O)C(=O)N(C)[C@@H](C)C(=O)N(C)[C@@H](Cc2ccccc2)C(=O)N(C)[C@@H](C)C(=O)N[C@H](C(=O)N(C)[C@@H](Cc2ccccc2)C(=O)N[C@@H](C)C(=O)N2CCCCC2)CC(=O)N(C)[C@@H](C)C(=O)N[C@@H](C)C(=O)N(C)[C@@H](C)C(=O)N1C [DP-445] ([NMeA]A[NMeA][NMeL][NMeA][NMeF]T[NMeA][NMeF][NMeA]D[NMeF]A-Piperidide; lactam N-11)"
  Papp at 18 hours, 50 µM [×10⁻⁶ cm/s]: 11
- COMPOUND: "CC[C@H](C)[C@@H]1NC(=O)[C@H](C(C)C)N(C)C(=O)[C@H](CC(C)C)N(C)C(=O)[C@H](Cc2ccccc2)NC(=O)[C@@H](C)N(C)C(=O)C[C@@H](C(=O)N(C)[C@@H](Cc2ccccc2)C(=O)N(C)[C@@H](Cc2ccccc2)C(=O)N[C@@H](C)C(=O)N2CCCCC2)NC(=O)[C@H](C)N(C)C(=O)[C@H]([C@@H](C)O)NC(=O)[C@H](CC(C)C)N(C)C(=O)CN(C)C1=O [DP-454] ([dNMeA]F[NMeL][NMeV]I[Sar][NMeL]T[NMeA]D[NMeF][NMeF]A-Piperidide; lactam N-10)"
  Papp at 18 hours, 50 µM [×10⁻⁶ cm/s]: 14
- COMPOUND: "CC(C)C[C@@H]1NC(=O)[C@H](Cc2ccccc2)N(C)C(=O)[C@H](C(C)C)N(C)C(=O)CN(C)C(=O)[C@H]([C@@H](C)O)NC(=O)[C@H](Cc2ccccc2)N(C)C(=O)[C@H](CC(C)C)N(C)C(=O)[C@H](CC(C)C)N(C)C(=O)[C@H](C)NC(=O)[C@@H](C(C)C)NC(=O)C[C@@H](C(=O)N(C)[C@@H](Cc2ccccc2)C(=O)N[C@@H](C)C(=O)N2CCCCC2)NC1=O [DP-484] ([dV]A[NMeL][NMeL][NMeF]T[Sar][NMeV][NMeF]LD[NMeF]A-Piperidide; lactam N-11)"
  Papp at 18 hours, 50 µM [×10⁻⁶ cm/s]: 13
- COMPOUND: "CC[C@H](C)[C@H]1C(=O)N(C)[C@@H](Cc2ccccc2)C(=O)N[C@@H]([C@@H](C)O)C(=O)N(C)[C@@H](C)C(=O)N(C)[C@@H](C(C)C)C(=O)N(C)[C@@H](CC(C)C)C(=O)N[C@@H](C)C(=O)N[C@H](C(=O)N2CCCCC2)CC(=O)N(C)CCC(=O)N[C@@H](Cc2ccccc2)C(=O)N(C)[C@@H](CC(C)C)C(=O)N1C [DP-241] ([NMeβAla]F[NMeL][NMeI][NMeF]T[NMeA][NMeV][NMeL]AD-Piperidide; lactam N-11)"
  Papp at 18 hours, 50 µM [×10⁻⁶ cm/s]: 26
